Assay: JHH-DIPG-1 glioma cell viability, MIPE5.0 library, CellTiter-Glo luminescence, qHTS (AID 1347067);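 also: cells exposed to compound for 48 hours before readout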
Conditions: JHH-DIPG-1 glioma viability, CellTiter-Glo ATP luminescence
Inconclusive results are not listed. Calls of active or inactive are those of the source. The limit is not given here; nearly all actives have AC50 up to about 26 µM.
property: AC50

Example entries begin here.
Cc1ccc(NC(=O)[C@H]2CCCN(C(=O)c3c(C)cccc3F)[C@H]2c2ccc(NC3CCCC3)cc2)cc1C(F)(F)F : inactive
Cn1cc(-c2ccc(-c3cncc(Cl)c3N3CCC4(CCNC4=O)CC3)cc2)cn1 : inactive
CC1CCC(C(=O)N(c2cc(C#CC(C)(C)C)sc2C(=O)O)C2CCC(O)CC2)CC1 (centres undefined) : 23.5 µM (active)
Nc1ccc(C(=O)c2cc3c(ccc4ccccc43)[nH]2)cc1 : 5.39 µM (active)
CCOc1cc2ncc(C#N)c(Nc3ccc(F)c(Cl)c3)c2cc1NC(=O)/C=C/CN(C)C : 9.34 µM (active)

// next item, AC50 requested
Q. Given the compound COc1cc(CCc2cc(NC(=O)c3ccc(N4C[C@@H](C)N[C@@H](C)C4)cc3)n[nH]2)cc(OC)c1 , what is its reported AC50?
A. 13.2 µM (active)

###

Experiment: viability loss in pontine glioma line – cell-based, SU-DIPG-IV, MIPE4.0, CellTiter-Glo, qHTS, dose response (AID 1347063);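 also: compound exposure lasted 48 hours before the viability readout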
Conditions: CellTiter-Glo ATP luminescence
Results filed as inconclusive are left out. The source made the active and inactive calls. The limit is not given here; nearly all actives have AC50 up to about 30 µM.
Result category, one only: Yes for active, No for inactive

See these solved cases before continuing.
Cc1cc2c(cc1C1(c3ccc(C(=O)O)cn3)CC1)C(C)(C)CCC2(C)C : No
CNC(=O)c1ccc(N2C(=S)N(c3cnc(C#N)c(C(F)(F)F)c3)C(=O)C23CCC3)cc1F : Yes
COc1cc(NC(=O)c2ccc(-c3ccc(Cl)cc3)o2)cc(OC)c1 : Yes
Cc1cnn(C)c1C(=O)Nc1cc(Nc2ccc3c(/C=C/c4ccccn4)n[nH]c3c2)ccc1F : Yes
C[C@H](NC(=O)[C@@H](O)c1cc(F)cc(F)c1)C(=O)N[C@@H]1C(=O)N(C)c2ccccc2-c2ccccc21 : No

Q. Recorded call for COc1c(OCCCN2CCOCC2)ccc2c3n(c(=NC(=O)c4cnc(N)nc4)nc12)CCN3 ?
A. Yes

###

Assay: viability loss in pontine glioma line – cell-based, SU-DIPG-XVII, MIPE5.0, CellTiter-Glo, qHTS, dose response (AID 1347060);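 as to AC50: cells exposed to compound for 48 hours before viability readout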
Conditions: CellTiter-Glo ATP luminescence
Inconclusive results are not listed. Active and inactive are the calls of the source. The limit is not given here; nearly all actives have AC50 up to about 26 µM.
Valid outcomes are listed here; reply with one: active, inactive

Example results:
COc1ccccc1C(=O)Nc1cc2c(cc1N1CCNC[C@H]1C)n(C)c(=O)n2C : inactive
CCCC(CCC)C(=O)Nc1ccn([C@@H]2O[C@H](CO)[C@@H](O)C2(F)F)c(=O)n1 : active
CC(C)(C)c1cc(C(C)(C)C)c(NC(=O)c2c[nH]c3ccccc3c2=O)cc1O : active
Cc1ccc(CN2CCNCC2)cc1NC(=O)CNc1ccc(F)c(F)c1 : inactive
O=C(Nc1ccccc1)Nc1ccc(-c2ccc(C(=O)[C@@H]3CCC[C@H]3C(=O)O)cc2)cc1 : inactive
CC(C)c1cc(C(=O)N2Cc3ccc(CN4CCN(C)CC4)cc3C2)c(O)cc1O : active

Q. Field: outcome | Entry: CC(C)n1cnc2c(NCCc3ccc(O)cc3)nc(-c3csc4ccccc34)nc21
A. active

Q. Any idea what this test logged for Nc1cc(C(F)(F)F)c(-c2cc(N3CCOCC3)nc(N3CCOCC3)n2)cn1 ?
A. active

Q. Short answer needed: outcome of this test for CCN1CCC(n2cc(CNc3cc(Cl)c4ncc(C#N)c(Nc5ccc(F)c(Cl)c5)c4c3)nn2)CC1 ?
A. active

Q. Check the results log: what was the call for C=CC(=O)Nc1cc(N2CCN(CC)CC2)ccc1Nc1cc(N(C)C(=O)Nc2c(Cl)c(OC)cc(OC)c2Cl)ncn1 ?
A. active

Q. # outcome recorded in this test, key = CCn1c(=O)c(-c2ccc(Cl)cc2Cl)cc2cnc(Nc3ccc(N4CCNCC4)c(F)c3)nc21
A. active

Q. Any idea what this test logged for Cc1cncc2cccc(S(=O)(=O)N3CCCN(C(=O)CN)C[C@@H]3C)c12 ?
A. inactive

###

Listing of entries alongside the reported inhibition.
Assay: growth inhibition, single agent or in combination, cell-based, chromothripsis tumors, cisplatin or BGB combos (AID 1671449);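 also: cells exposed for 96 hours; 0% = vehicle DMSO and 100% = killing by high DMSO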
Conditions: LFS_MB_P medulloblastoma cells, at 0.5 µM, active compounds read high
Hi! Could you send only the number? It should be in %, unit omitted.

Take a look at these entries with their results.
CO[C@H]1/C=C/O[C@@]2(C)Oc3c(C)c(O)c4c(O)c(c(/C=N\N5CCN(C6CCCC6)CC5)c(O)c4c3C2=O)NC(=O)/C(C)=C\C=C\[C@H](C)[C@H](O)[C@@H](C)[C@@H](O)[C@@H](C)[C@H](OC(C)=O)[C@@H]1C : 5.09
Cc1cn([C@@H]2O[C@H](CO)[C@@H](O)[C@@H]2F)c(=O)[nH]c1=O : -22.2

Consider the additional molecule presented here.
Q. Query (molecule): CS(=O)(=O)c1ccc(-c2nnc(/C=C/c3nnc(-c4ccc(C#N)cc4)o3)n2-c2ccccc2Cl)nc1 ; field requested: inhibition
A. 1.48

###

Test: viability loss in pontine glioma line – cell-based, SU-DIPG-IV, MIPE4.0, CellTiter-Glo, qHTS, dose response (AID 1347063);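 also: compound exposure lasted 48 hours before the viability readout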
Conditions: CellTiter-Glo ATP luminescence
Results filed as inconclusive are left out. The source made the active and inactive calls. The limit is not given here; nearly all actives have AC50 up to about 30 µM.
property: AC50

Some compounds with recorded AC50:
CCNC(=O)c1cc2c(-c3cc(OCCN4CCCC4)c(Cl)cc3Cl)nc(N)nc2s1 : 2.35 µM (active)
NC(=O)Nc1cc(-c2cccc(F)c2)sc1C(=O)N[C@H]1CCCNC1 : 5.9 µM (active)
CON(C)C(=O)N1N=C(c2cc(F)ccc2F)S[C@]1(CCCN)c1ccccc1 : inactive
CNC(=O)c1ccc(N2C(=S)N(c3ccc(C#N)c(C(F)(F)F)c3)C(=O)C2(C)C)cc1F : inactive
COc1cc2ncnc(Nc3ccc(F)c(Cl)c3)c2cc1NC(=O)/C=C/CN1CCCCC1 : 20.9 µM (active)
Cc1cnc(Nc2ccc(N3CCN(C)CC3)cc2)nc1Nc1cccc(S(=O)(=O)NC(C)(C)C)c1 : 6.62 µM (active)
c1nc2nc(Nc3ccc(N4CCOCC4)cc3)nc(NC3CCCCC3)c2[nH]1 : 14.8 µM (active)
C[C@H](Cc1ccc(O)c(O)c1)[C@@H](C)Cc1ccc(O)c(O)c1 : 16.6 µM (active)

Q. State the recorded AC50 for this entry: Nc1nc(F)nc2c1ncn2[C@@H]1O[C@H](CO)[C@@H](O)[C@H]1O
A. 0.264 µM (active)

Q. What value of measured AC50 is listed for Cc1[nH]c2ccccc2c1CCNCc1ccc(/C=C/C(=O)NO)cc1 ?
A. 0.332 µM (active)

###

Item-by-item account of viability
Assay: drug combination growth inhibition, ovarian cancer – cell-based, oncology-focused library, rucaparib conditional, profiling panel (AID 1508598)
Settings: patient-derived ovarian cancer cells, CellTiter-Glo viability, 144 h; at 0.0781 µM; OCI-P5x cells; without rucaparib; active compounds read low
A number alone suffices; assume %.

Answered cases to consult:
CN(C)C/C=C/C(=O)Nc1cc2c(Nc3ccc(F)c(Cl)c3)ncnc2cc1O[C@H]1CCOC1 : 94.8
Oc1cccc(-c2nc(N3CCOCC3)c3oc4ncccc4c3n2)c1 : 96.9

Q. Consider the compound shown here: Cc1ccc(NC(=O)c2cccc(C(C)(C)C#N)c2)cc1Nc1ccc2ncn(C)c(=O)c2c1 What is its recorded viability?
A. 82.8

Q. Can you share its viability? I mean this compound: CS(=O)(=O)N1CCN(Cc2cc3nc(-c4cccc5[nH]ncc45)nc(N4CCOCC4)c3s2)CC1
A. 88.1

Q. Please look up its viability: N#CCNC(=O)c1ccc(-c2ccnc(Nc3ccc(N4CCOCC4)cc3)n2)cc1
A. 92.3

###

Assay: growth inhibition of DIPG cells – cell-based, MIPE5.0 library, qHTS (AID 1347068);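 as to IC50: cells exposed to compound for 48 hours before viability readout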
Conditions: SU-DIPG-XXV viability
Results filed as inconclusive are left out. The source made the active and inactive calls. The limit is not given here; nearly all actives have IC50 up to about 30 µM.
property: IC50

Below, 5 molecules whose answers are already recorded.
O=C(NCC(=O)N1CC[C@H](NC2CCC(O)(c3ccc(-c4ncccn4)cn3)CC2)C1)c1cccc(C(F)(F)F)c1 (some centres not stated) : inactive
Cc1cnc(NC(=O)c2cc(Oc3cnc(C(=O)N(C)C)nc3)c3cc(C)oc3c2)cn1 : inactive
Cc1noc(-c2ccc(CSCCC(=O)O)cc2)c1NC(=O)OC(C)c1ccccc1Cl (configuration not stated) : inactive
CC(C)(O)C1CCC(Nc2ccc3ncc(-c4cccc(C(F)(F)F)c4)n3n2)CC1 (configuration not stated) : 8.33 µM (active)
O=C(O)C1=CC(O)C(O)[C@H](O)C1 (some centres not stated) : inactive

Q. Which IC50 reading was recorded for the molecule C/C=C(/C)C(=O)O[C@H]1C(C)=CC23C(=O)C(C=C(CO)[C@@H](O)[C@]12O)[C@H]1[C@@H](C[C@H]3C)C1(C)C (some centres not stated) ?
A. inactive

Q. State the recorded IC50 for this entry: CC(C)N(CCCNC(=O)Nc1ccc(C(C)(C)C)cc1)C[C@H]1O[C@@H](n2ccc3c(N)ncnc32)[C@H](O)[C@@H]1O
A. inactive

The measurements presented in this section are drawn from PubChem BioAssay.
